Overview of reported IC50 across a group of compounds:
# EXPERIMENTAL_TARGET: Glutamate carboxypeptidase 2 (Homo sapiens, UniProt Q04609)
# Sequence (Q04609 whole entry): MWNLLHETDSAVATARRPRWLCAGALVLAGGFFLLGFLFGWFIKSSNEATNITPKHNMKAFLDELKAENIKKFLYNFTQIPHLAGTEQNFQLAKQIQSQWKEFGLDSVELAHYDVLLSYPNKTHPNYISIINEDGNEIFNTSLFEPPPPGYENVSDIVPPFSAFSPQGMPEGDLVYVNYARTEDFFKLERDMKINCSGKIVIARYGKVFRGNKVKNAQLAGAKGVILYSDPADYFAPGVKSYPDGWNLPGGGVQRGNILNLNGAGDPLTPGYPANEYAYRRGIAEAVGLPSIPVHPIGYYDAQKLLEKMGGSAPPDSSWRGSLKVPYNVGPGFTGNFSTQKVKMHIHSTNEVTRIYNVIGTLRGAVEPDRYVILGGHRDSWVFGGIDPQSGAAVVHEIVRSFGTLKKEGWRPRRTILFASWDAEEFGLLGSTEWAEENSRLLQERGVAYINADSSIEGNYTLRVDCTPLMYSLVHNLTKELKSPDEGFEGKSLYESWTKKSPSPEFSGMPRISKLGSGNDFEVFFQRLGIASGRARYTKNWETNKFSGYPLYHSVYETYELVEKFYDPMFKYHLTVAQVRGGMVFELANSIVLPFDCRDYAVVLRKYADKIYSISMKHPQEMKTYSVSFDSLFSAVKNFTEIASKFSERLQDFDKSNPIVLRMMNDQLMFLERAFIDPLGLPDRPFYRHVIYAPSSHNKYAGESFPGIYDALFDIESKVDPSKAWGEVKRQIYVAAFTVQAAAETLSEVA
# METHOD_NOTES: Displacement of [18F]PSMA-1007 from human PSMA expressed in human LNCaP cells by competitive binding assay
Just the number in nM, nothing appended.

For orientation, consider the following solved cases.
O=C(O)CC[C@H](NC(=O)N[C@@H](CCCC(=O)NCc1ccc(F)cc1)C(=O)O)C(=O)O = 1500
O=C(O)CC[C@H](CC(=O)N[C@@H](CCCCNC(=O)[C@H](Cc1ccccc1)NC(=O)COc1ccc(C[C@H](NC(=O)CCC(=O)CO/N=C/c2ccc(F)cc2)C(=O)O)cc1)C(=O)O)C(=O)O = 13
O=C(O)CC[C@H](NC(=O)N[C@@H](CCCC(=O)Nc1ccc(F)nc1)C(=O)O)C(=O)O = 90

Continue with the compound presented below.
Query :: Look up IC50 for this compound: O=C(O)CC[C@H](NC(=O)N[C@@H](CCCCNC(=O)[C@H](Cc1ccc2ccccc2c1)NC(=O)[C@H]1CC[C@H](CNC(=O)[C@H](CCC(=O)O)NC(=O)[C@H](CCC(=O)O)NC(=O)c2ccc(F)nc2)CC1)C(=O)O)C(=O)O
Result :: 4
